Below, each of the binders is paired with its reported interaction score value.
- target-desc: T1, 4H3129-AA
- T1 chain: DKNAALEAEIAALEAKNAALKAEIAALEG
- method-description: two-hybrid library CCmax;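 further: natural log of median RNA to DNA barcode read ratio; higher means stronger binding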
- settings: mean of both orientations
property-label: interaction score

binder | property-label | measured-value
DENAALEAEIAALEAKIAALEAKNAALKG [4H1064-AA] | interaction score | -1.71
DKIAALKAENAALEAKIAALEAKNAALKG [4H2728-AA] | interaction score | 0.939
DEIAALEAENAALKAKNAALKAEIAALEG [4H249-AA] | interaction score | -2.01
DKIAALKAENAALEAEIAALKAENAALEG [4H2699-AA] | interaction score | 1.24
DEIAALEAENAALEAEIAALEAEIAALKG [4H130-AA] | interaction score | -0.746
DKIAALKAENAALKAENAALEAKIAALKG [4H2774-AA] | interaction score | -0.715
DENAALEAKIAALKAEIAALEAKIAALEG [4H1349-AA] | interaction score | 0.123
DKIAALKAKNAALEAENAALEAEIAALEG [4H2961-AA] | interaction score | -1.5
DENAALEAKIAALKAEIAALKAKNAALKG [4H1360-AA] | interaction score | -1.34
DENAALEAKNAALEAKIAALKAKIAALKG [4H1454-AA] | interaction score | -1.84
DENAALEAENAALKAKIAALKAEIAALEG [4H1257-AA] | interaction score | -1.9
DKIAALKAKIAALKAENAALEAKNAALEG [4H2903-AA] | interaction score | -0.64
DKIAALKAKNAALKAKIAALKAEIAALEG [4H3049-AA] | interaction score | -1.06
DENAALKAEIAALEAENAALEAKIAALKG [4H1558-AA] | interaction score | 2.15
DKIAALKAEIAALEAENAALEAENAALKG [4H2580-AA] | interaction score | -1.21
